Test system: HepG2
Assay overview: cytotoxicity call (relative viability < 0.9)
Conditions: 10 µM
The whole screen tested about 39,000 compounds, of which about 3,300 (8.5%) were called active. The list comes from a sample in which actives are over-represented; it also holds close analogues and randomly drawn compounds.
Pick one: active, inactive

Some solved cases for reference:
{"columns": ["Smi", "Class name"],
 "data": [
  ["COc1ccc(S(=O)(=O)N[C@H]2CC[C@H](CC(=O)N3CCC(Cc4ccccc4)CC3)O[C@@H]2CO)cc1", "inactive"],
  ["COc1cc2c(N3CCN(C(=O)Nc4ccc(OC(C)C)cc4)CC3)ncnc2cc1OCCCN1CCCCC1", "inactive"],
  ["CCS(=O)(=O)Nc1ccc2c(c1)C(=O)N(C)[C@@H]1CC[C@@H](CC(=O)N[C@@H]3CCN(Cc4ccccc4)C3)O[C@@H]1CO2", "inactive"],
  ["C[C@H]1CN([C@@H](C)CO)C(=O)c2cc(NC(=O)c3ccncc3)ccc2O[C@H]1CN(C)Cc1ccc(-c2ccccc2)cc1", "inactive"],
  ["C[C@H](CO)N1C[C@H](C)[C@@H](CN(C)C(=O)NC2CCCCC2)OCCCC[C@H](C)Oc2ccc(NC(=O)Nc3ccccc3)cc2C1=O", "inactive"],
  ["C[C@H]1CCCCO[C@H](CN(C)C(=O)NC2CCCCC2)[C@@H](C)CN([C@@H](C)CO)C(=O)c2cc(NC(=O)Nc3ccccc3)ccc2O1", "active"],
  ["O=C(NCCCN1CCOCC1)c1ccc(Cl)cc1", "inactive"],
  ["C[C@]12CC3CC(N)(C1)C[C@@](C)(C3)C2", "inactive"]
]}

Next up:
Input: Look up the recorded call for C[C@H](CO)N1C[C@H](C)[C@H](CN(C)CC2CC2)Oc2ccc(NS(=O)(=O)c3ccccc3)cc2CC1=O in this test.
Output: inactive

###

Test system: HepG2
Assay overview: cytotoxicity call (relative viability < 0.9)
Conditions: 10 µM
In all, about 39,000 compounds went through this assay and about 3,300 (8.5%) were called active. Many of the other results were omitted from the sample, so actives are more common in it than they were.
Pick one: active, inactive

{"columns": ["Smi", "Class name"],
 "data": [
  ["C[C@@H]1CCCCO[C@H](CN(C)Cc2ccc3c(c2)OCO3)[C@@H](C)CN([C@H](C)CO)C(=O)c2cc(NC(=O)C3CCCCC3)ccc2O1", "active"]
]}

Input: Look up the recorded call for C[C@@H]1CN([C@H](C)CO)C(=O)c2cc(NC(=O)C3CCCCC3)ccc2O[C@@H](C)CCCCO[C@@H]1CN(C)Cc1ccc2c(c1)OCO2 in this test.
Output: active

Input: Look up the recorded call for C[C@H](CO)N1C[C@H](C)[C@@H](CN(C)C(=O)Nc2cccc3ccccc23)OCCCC[C@H](C)Oc2ccc(NS(=O)(=O)c3cn(C)cn3)cc2C1=O in this test.
Output: inactive

Input: Look up the recorded call for C[C@H]1CN([C@@H](C)CO)C(=O)c2cccc(NC(=O)Nc3cccc4ccccc34)c2O[C@H]1CN(C)Cc1ccc(-c2ccccc2)cc1 in this test.
Output: inactive

Input: Look up the recorded call for COCCOC(=O)N1C(=O)[C@@]2(c3cc(C#CC4=CCCCC4)ccc31)[C@H](c1ccccc1OCCO)N1[C@H](c3ccccc3)[C@H](c3ccccc3)OC(=O)[C@H]1[C@@H]2C(=O)N1CCCCCCC1 in this test.
Output: inactive

Input: Look up the recorded call for C[C@@H]1CCCCO[C@H](CN(C)Cc2ccc(Cl)c(Cl)c2)[C@@H](C)CN([C@H](C)CO)C(=O)c2cc(NS(=O)(=O)c3ccc(F)cc3)ccc2O1 in this test.
Output: inactive

Input: Look up the recorded call for COc1ccccc1-c1ccc2n(c1=O)C[C@H]1[C@H](CO)[C@@H](C(=O)NCC3CC3)N(S(C)(=O)=O)[C@@H]21 in this test.
Output: inactive

Input: Look up the recorded call for COCCOC(=O)N1C(=O)[C@@]2(c3cc(C#CC4=CCCCC4)ccc31)[C@H](c1ccccc1OCCO)N1[C@H](c3ccccc3)[C@H](c3ccccc3)OC(=O)[C@H]1[C@@H]2C(=O)N1CCc2cc(OC)c(OC)cc2C1 in this test.
Output: inactive

###

Test system: HepG2
Assay overview: cytotoxicity call (relative viability < 0.9)
Conditions: 10 µM
The campaign covered roughly 39,000 compounds. About 3,300 (8.5%) were called active. The entries come from a sample that favours actives as a whole.
Readout kind: cytotoxicity call

{"columns": ["Smi", "cytotoxicity call"],
 "data": [
  ["C/C=C/c1ccc([C@@H]2[C@H](CO)N(S(=O)(=O)CC)C23CN(C(=O)CN(C)C)C3)cc1", "inactive"],
  ["CCOC(=O)CCn1cc(F)c(=O)[nH]c1=O", "inactive"],
  ["COc1ccc(NC(=O)Nc2ccc3c(c2)C(=O)N([C@@H](C)CO)C[C@H](C)[C@H](CN(C)C(=O)Nc2ccc4c(c2)OCO4)OCCCC[C@H](C)O3)cc1", "inactive"],
  ["C[C@@H]1CN([C@H](C)CO)C(=O)c2cc(NC(=O)c3ccccc3)ccc2O[C@@H](C)CCCCO[C@H]1CN(C)C(=O)CCC(F)(F)F", "inactive"],
  ["CCOC(=O)Cn1cc(F)c(=O)[nH]c1=O", "inactive"]
]}

List the reported cytotoxicity call of each compound below.
1. COc1ccc(CN(C)C[C@H]2OCCCC[C@@H](C)Oc3ccc(NC(=O)Nc4ccc(C(F)(F)F)cc4)cc3C(=O)N([C@H](C)CO)C[C@H]2C)cc1
2. COc1ccc(NC(=O)Nc2ccc3c(c2)C(=O)N([C@@H](C)CO)C[C@H](C)[C@@H](CN(C)Cc2ccc(C(F)(F)F)cc2)OCCCC[C@@H](C)O3)cc1
3. Cc1nc2c(=O)n(C)c(=O)n(C)c2nc1Cl
4. CC(C)NC(=O)N(C)C[C@@H]1Oc2ncc(-c3ccc(C(=O)N(C)C)cc3)cc2C(=O)N([C@H](C)CO)C[C@H]1C

Output:
active
active
active
inactive

###

Test system: HepG2
Assay overview: cytotoxicity call (relative viability < 0.9)
Conditions: 10 µM
Screen size: about 39,000 compounds; about 3,300 (8.5%) were called active. This is one part of a sample in which actives are shown more often than they occur.
Pick one: class 1 (active), class 0 (inactive)

{"columns": ["Smi", "Class name"],
 "data": [
  ["CCCCCCCCCCCCCCCC[N+](C)(C)Cc1ccccc1.[Cl-]", "class 1"]
]}

Input: Look up the recorded call for Cc1noc(C)c1S(=O)(=O)Nc1ccc2c(c1)C(=O)N([C@@H](C)CO)C[C@@H](C)[C@@H](CN(C)S(=O)(=O)c1ccccc1)O2 in this test.
Output: class 0

Input: Look up the recorded call for Cc1ccc(S(=O)(=O)N(C)C[C@@H]2Oc3ncc(C#Cc4ccc(F)cc4)cc3C(=O)N([C@H](C)CO)C[C@@H]2C)cc1 in this test.
Output: class 0

Input: Look up the recorded call for COc1ccc(/C=C/CN(C/C=C/c2ccc(OC)cc2)CCCCNS(=O)(=O)c2cccc3cnccc23)cc1 in this test.
Output: class 1

Input: Look up the recorded call for COC(=O)[C@H](Cc1ccccc1)N1CC(/C=C/C2CC2)=C[C@@H]1[C@@H](O)CCn1cc(-c2ccc(C(=O)NO)s2)nn1 in this test.
Output: class 0

Input: Look up the recorded call for CC1=CC(=O)c2ccccc2C1=O in this test.
Output: class 1

Input: Look up the recorded call for CCCCCc1ccccn1 in this test.
Output: class 0

Input: Look up the recorded call for C[C@H](CO)N1C[C@H](C)[C@H](CN(C)C(=O)c2ccc(N3CCN(C)CC3)cc2)OCc2cnnn2CCCC1=O in this test.
Output: class 0

Input: Look up the recorded call for CC[N+](C)(CC)Cc1ccccc1 in this test.
Output: class 0

Input: Look up the recorded call for NC1=CC(=O)c2ccccc2C1=O in this test.
Output: class 0

Input: Look up the recorded call for O=S(=O)(NCCCCN(C/C=C/c1ccc(F)cc1)C/C=C/c1ccc(F)cc1)c1cccc2cnccc12 in this test.
Output: class 1

Input: Look up the recorded call for Cc1noc(C)c1NC(=O)Nc1ccc2c(c1)CC(=O)N([C@@H](C)CO)C[C@@H](C)[C@@H](CN(C)Cc1ccc(-c3ccccc3)cc1)O2 in this test.
Output: class 1

Input: Look up the recorded call for COc1ccc(CN(C)C[C@H]2Oc3c(NC(=O)Nc4cccc5ccccc45)cccc3C(=O)N([C@H](C)CO)C[C@H]2C)cc1 in this test.
Output: class 0

Input: Look up the recorded call for COC(=O)[C@@H](Cc1ccccc1)N[C@H](/C=C/C1CC1)[C@@H](O)CCn1cc(-c2cccc(/C=C/C(=O)NO)c2)nn1 in this test.
Output: class 0

Input: Look up the recorded call for O=S(=O)(NCCCN(C/C=C/c1ccc(F)cc1)C/C=C/c1ccc(F)cc1)c1cccc2cnccc12 in this test.
Output: class 0

Input: Look up the recorded call for O=C(CCCCCNC(=O)OCc1ccc(CO[C@@H]2C[C@H](c3csc4ccccc34)C=C(C(=O)N3CCN(Cc4ccccc4)CC3)O2)cc1)NO in this test.
Output: class 0

Input: Look up the recorded call for Cc1noc(C)c1NC(=O)Nc1ccc2c(c1)CC(=O)N([C@H](C)CO)C[C@@H](C)[C@H](CN(C)Cc1ccc(-c3ccccc3)cc1)O2 in this test.
Output: class 0
